Data origin: PubChem BioAssay AID759

Measured GTP binding activity of individual entries
molecular target: GTPase HRas (Homo sapiens) (UniProt P01112); test: HRas wt fluorescent GTP binding changes, either direction – biochemical, wildtype, bead-based flow cytometry, multiplex, primary screen (AID 759); details: GST-Ras wt beads, Bodipy-FL-GTP binding, at 10 µM, actives lie on both sides;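 further: 0% = unlabeled GTP competition control and 100% = no-compound control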
Sequence (P01112 whole entry, looked up): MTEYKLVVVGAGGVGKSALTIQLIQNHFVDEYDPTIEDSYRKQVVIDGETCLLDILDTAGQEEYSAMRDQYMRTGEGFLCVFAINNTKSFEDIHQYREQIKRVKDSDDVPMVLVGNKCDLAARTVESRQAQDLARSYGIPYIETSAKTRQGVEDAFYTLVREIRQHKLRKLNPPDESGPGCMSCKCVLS
The campaign covered roughly 190,000 compounds. About 270 (0.14%) were called active. Inconclusive results (about 2%) are left out. This excerpt belongs to a sample that is enriched for actives.

[
  {
    "compound": "CCC(C)NC(=O)Cn1nc(C(F)(F)F)c2c1CCC2 (centres undefined)",
    "tgt": "GTPase HRas (Homo sapiens) (UniProt P01112)",
    "GTP binding activity / %": 100
  },
  {
    "compound": "COc1ccc(C(=O)NC(Cc2ccc(OC(=O)c3ccc(OC)cc3)cc2)C(=O)O)cc1 (centres undefined)",
    "tgt": "GTPase HRas (Homo sapiens) (UniProt P01112)",
    "GTP binding activity / %": 90
  },
  {
    "compound": "O=C(Nc1ccc(N2CCOCC2)cc1)c1ccc2c(c1)OCO2",
    "tgt": "GTPase HRas (Homo sapiens) (UniProt P01112)",
    "GTP binding activity / %": 99
  },
  {
    "compound": "CCc1ccc(NC(=O)C(=O)N/N=C(\\C)CC(=O)NCCOC)cc1",
    "tgt": "GTPase HRas (Homo sapiens) (UniProt P01112)",
    "GTP binding activity / %": 96
  },
  {
    "compound": "Nn1c(SCC(=O)Nc2nccs2)nncc1=O",
    "tgt": "GTPase HRas (Homo sapiens) (UniProt P01112)",
    "GTP binding activity / %": 96
  },
  {
    "compound": "Cc1nc(CN2CCN(C(=O)CCc3nnc(Cc4c[nH]c5ccccc45)o3)CC2)cs1",
    "tgt": "GTPase HRas (Homo sapiens) (UniProt P01112)",
    "GTP binding activity / %": 95
  },
  {
    "compound": "Cc1c(Cc2ccccc2)c(=O)oc2cc(OCC(N)=O)ccc12",
    "tgt": "GTPase HRas (Homo sapiens) (UniProt P01112)",
    "GTP binding activity / %": 93
  },
  {
    "compound": "CC(=O)Nc1ccc(S(=O)(=O)Oc2ccc(/C=N/N=C3/NC(=O)C(CC(=O)O)S3)cc2)cc1 (centres undefined)",
    "tgt": "GTPase HRas (Homo sapiens) (UniProt P01112)",
    "GTP binding activity / %": 92
  },
  {
    "compound": "O=S(=O)(Nc1ncccn1)c1ccc(NS(=O)(=O)c2cccc(Cl)c2Cl)cc1",
    "tgt": "GTPase HRas (Homo sapiens) (UniProt P01112)",
    "GTP binding activity / %": 96
  },
  {
    "compound": "COc1ccc(S(=O)(=O)Nc2cccnc2)c(Cl)c1Cl",
    "tgt": "GTPase HRas (Homo sapiens) (UniProt P01112)",
    "GTP binding activity / %": 93
  },
  {
    "compound": "CCNC(=O)CC1C(=O)N(c2ccc(OC)cc2)C(=S)N1CCc1ccncc1 (centres undefined)",
    "tgt": "GTPase HRas (Homo sapiens) (UniProt P01112)",
    "GTP binding activity / %": 98
  },
  {
    "compound": "C=CCN1C2CCCC1CC(NC(=S)Nc1cccc(OC)c1)C2 (centres undefined)",
    "tgt": "GTPase HRas (Homo sapiens) (UniProt P01112)",
    "GTP binding activity / %": 99
  },
  {
    "compound": "CC(C)(O)C#Cc1ncc(C(F)(F)F)cc1Cl",
    "tgt": "GTPase HRas (Homo sapiens) (UniProt P01112)",
    "GTP binding activity / %": 98
  },
  {
    "compound": "O=C(CN1CCN(S(=O)(=O)/C=C/c2ccccc2)CC1)Nc1ccc(N2CCOCC2)cc1",
    "tgt": "GTPase HRas (Homo sapiens) (UniProt P01112)",
    "GTP binding activity / %": 99
  },
  {
    "compound": "S=C(Cc1ccc(Cl)cc1)N1CCOCC1",
    "tgt": "GTPase HRas (Homo sapiens) (UniProt P01112)",
    "GTP binding activity / %": 94
  },
  {
    "compound": "CC(C)OCCCNC(=S)N1CCC(C(=O)c2ccc3c(c2)OCCO3)CC1",
    "tgt": "GTPase HRas (Homo sapiens) (UniProt P01112)",
    "GTP binding activity / %": 95
  },
  {
    "compound": "COc1ccccc1NC(=O)COC(=O)Cc1ccc(S(=O)(=O)N2CCCCC2)s1",
    "tgt": "GTPase HRas (Homo sapiens) (UniProt P01112)",
    "GTP binding activity / %": 98
  },
  {
    "compound": "CC/C(Cc1ccccc1)=N/NC(=O)CCn1nnc2ccccc21",
    "tgt": "GTPase HRas (Homo sapiens) (UniProt P01112)",
    "GTP binding activity / %": 101
  },
  {
    "compound": "C=C(C)C1CC=C(C)/C(=N/NC(=O)CCCNc2cccc(C)c2)C1 (centres undefined)",
    "tgt": "GTPase HRas (Homo sapiens) (UniProt P01112)",
    "GTP binding activity / %": 96
  },
  {
    "compound": "Cc1ccc(NC(=O)CSc2nc(CSc3ccc(C)cc3)cc(=O)[nH]2)cc1",
    "tgt": "GTPase HRas (Homo sapiens) (UniProt P01112)",
    "GTP binding activity / %": 95
  },
  {
    "compound": "CCc1nnc(NC(=O)CSc2nc(SC)ns2)s1",
    "tgt": "GTPase HRas (Homo sapiens) (UniProt P01112)",
    "GTP binding activity / %": 99
  },
  {
    "compound": "COCCN(CCOC)S(=O)(=O)c1ccc(C(=O)Nc2nc3c(s2)CCc2ccccc2-3)cc1",
    "tgt": "GTPase HRas (Homo sapiens) (UniProt P01112)",
    "GTP binding activity / %": 104
  },
  {
    "compound": "O=C(COC(=O)c1cnc(Cl)c(Cl)c1)NCc1ccco1",
    "tgt": "GTPase HRas (Homo sapiens) (UniProt P01112)",
    "GTP binding activity / %": 97
  },
  {
    "compound": "Cc1ccc(NC(=S)N(CCN(C)C)Cc2cccs2)cc1C",
    "tgt": "GTPase HRas (Homo sapiens) (UniProt P01112)",
    "GTP binding activity / %": 93
  },
  {
    "compound": "CCOC(=O)CN1CCC(c2ccccc2)CC1",
    "tgt": "GTPase HRas (Homo sapiens) (UniProt P01112)",
    "GTP binding activity / %": 98
  },
  {
    "compound": "CCOc1cc(NC(=S)NCc2ccco2)c(OCC)cc1NC(=O)c1ccco1",
    "tgt": "GTPase HRas (Homo sapiens) (UniProt P01112)",
    "GTP binding activity / %": 98
  },
  {
    "compound": "O=C(O)c1ccc2c3c(cccc13)C(=O)N(OS(=O)(=O)c1ccccc1)C2=O",
    "tgt": "GTPase HRas (Homo sapiens) (UniProt P01112)",
    "GTP binding activity / %": 84
  },
  {
    "compound": "CN(C)C(=O)CSc1n[nH]c(-c2ccco2)n1",
    "tgt": "GTPase HRas (Homo sapiens) (UniProt P01112)",
    "GTP binding activity / %": 94
  },
  {
    "compound": "COC(=O)c1ccc(/C=N/OCC(=O)Nc2cc(F)ccc2F)cc1",
    "tgt": "GTPase HRas (Homo sapiens) (UniProt P01112)",
    "GTP binding activity / %": 95
  },
  {
    "compound": "COc1cc2nc(CN(C)Cc3ccc(F)cc3)[nH]c(=O)c2cc1OC",
    "tgt": "GTPase HRas (Homo sapiens) (UniProt P01112)",
    "GTP binding activity / %": 97
  },
  {
    "compound": "CC(=O)N(CN1C(=O)C2C3C=CC(C3)C2C1=O)c1cccc(Cl)c1 (centres undefined)",
    "tgt": "GTPase HRas (Homo sapiens) (UniProt P01112)",
    "GTP binding activity / %": 93
  },
  {
    "compound": "O=C(Nc1cccc(Cl)c1)c1cc([N+](=O)[O-])ccc1N1CCN(CCO)CC1",
    "tgt": "GTPase HRas (Homo sapiens) (UniProt P01112)",
    "GTP binding activity / %": 97
  },
  {
    "compound": "O=C(COc1ccccc1Cl)Nc1ccc(C(=O)c2ccc(C(=O)O)cc2)cc1",
    "tgt": "GTPase HRas (Homo sapiens) (UniProt P01112)",
    "GTP binding activity / %": 100
  },
  {
    "compound": "COC(=O)c1nn(-c2cccc(Cl)c2)ccc1=O",
    "tgt": "GTPase HRas (Homo sapiens) (UniProt P01112)",
    "GTP binding activity / %": 97
  },
  {
    "compound": "COc1ccc(Cc2nnc(NC(=O)c3cc(OC)c(OC)c(OC)c3)s2)cc1OC",
    "tgt": "GTPase HRas (Homo sapiens) (UniProt P01112)",
    "GTP binding activity / %": 94
  },
  {
    "compound": "CCC(C)NC(=O)/C=C/c1ccc(S(=O)(=O)NCc2ccco2)cc1 (centres undefined)",
    "tgt": "GTPase HRas (Homo sapiens) (UniProt P01112)",
    "GTP binding activity / %": 99
  },
  {
    "compound": "CCNC(=O)CC1C(=O)N(c2ccc(F)cc2)C(=O)N1Cc1cccs1 (centres undefined)",
    "tgt": "GTPase HRas (Homo sapiens) (UniProt P01112)",
    "GTP binding activity / %": 100
  },
  {
    "compound": "Cc1ccc(CSc2nc3[nH]ncc3c(=O)[nH]2)cc1",
    "tgt": "GTPase HRas (Homo sapiens) (UniProt P01112)",
    "GTP binding activity / %": 78
  },
  {
    "compound": "CCOCCCNCc1ccc(OCc2ccc(F)cc2)c(OC)c1",
    "tgt": "GTPase HRas (Homo sapiens) (UniProt P01112)",
    "GTP binding activity / %": 97
  },
  {
    "compound": "Nc1nnc(SCn2nnc3ccccc3c2=O)s1",
    "tgt": "GTPase HRas (Homo sapiens) (UniProt P01112)",
    "GTP binding activity / %": 95
  },
  {
    "compound": "Cc1cccc(C(=O)Nc2ccc3c(c2)C(=O)N(CC(C)C)C3=O)c1",
    "tgt": "GTPase HRas (Homo sapiens) (UniProt P01112)",
    "GTP binding activity / %": 96
  },
  {
    "compound": "C=C(C)CNC(=S)N/N=C/c1ccccc1OCC(=O)O",
    "tgt": "GTPase HRas (Homo sapiens) (UniProt P01112)",
    "GTP binding activity / %": 95
  },
  {
    "compound": "C=CCOC(=O)C1=C(C)N=C2SCCC(=O)N2C1/C=C/c1ccccc1OC (centres undefined)",
    "tgt": "GTPase HRas (Homo sapiens) (UniProt P01112)",
    "GTP binding activity / %": 99
  },
  {
    "compound": "Cc1cccc(-n2c(Cc3cc(=O)[nH]c(=O)[nH]3)nnc2SCC(=O)Nc2cccc(C(F)(F)F)c2)c1",
    "tgt": "GTPase HRas (Homo sapiens) (UniProt P01112)",
    "GTP binding activity / %": 102
  }
]
